- System: human PBMC
- assayName: Toxicity assay under normal cell culture conditions (MTS), PBMC
- Type: cell-based
- conditionInfo: human PBMC, RPMI+10% FBS+IL-2, 72 h incubation, MTS
endpoint: PBMC tox.: 50% tox. at (μM) av (µM)
Reply with just the number (in µM).

Provide PBMC tox.: 50% tox. at (μM) av, system human PBMC, entry CCN(CC)CCCNC(=O)c1cccc(Nc2cccc(/C=C/c3ccncc3)c2)c1 [Compound C88, reference compound]
10

Provide PBMC tox.: 50% tox. at (μM) av, system human PBMC, entry CCN(CC)CCCNC(=O)c1cccc(Nc2cccc(C(=O)Nc3ccncc3)c2)n1 [Compound 35]
128

Provide PBMC tox.: 50% tox. at (μM) av, system human PBMC, entry O=C(NCCCN1CCOCC1)c1cccc(Nc2cccc(C(=O)Nc3ccncc3)c2)c1 [Compound 3]
51

Provide PBMC tox.: 50% tox. at (μM) av, system human PBMC, entry CCN(CC)CCCNC(=O)c1cccc(Nc2cccc(C(=O)Nc3ccccn3)c2)c1 [Compound 11]
47

Provide PBMC tox.: 50% tox. at (μM) av, system human PBMC, entry O=C(NCCCN1CCOCC1)c1cccc(Nc2cc(C(=O)Nc3ccncc3)ccn2)c1 [Compound 48]
26

Provide PBMC tox.: 50% tox. at (μM) av, system human PBMC, entry CCN(CC)CCCNS(=O)(=O)c1cccc(Nc2cccc(C(=O)Nc3ccncn3)c2)c1 [Compound 26]
85

====

- Tested on: MDA-MB231-luc-D3H2LN cells
- assayName: Toxicity assay under normal cell culture conditions (MTS), MDA cells
- Assay type: cell-based, human
- conditionInfo: MDA-MB231-luc-D3H2LN cells, MEM+10% FBS, 72 h incubation, MTS
endpoint: MDA tox: 50% tox. at (μM) av (µM)
Reply with just the number (in µM).

Retrieve MDA tox: 50% tox. at (μM) av measured for `CCN(CC)CCCNC(=O)c1cccc(Nc2cccc(C(=O)Nc3ccncn3)c2)n1` and print it.
73

Retrieve MDA tox: 50% tox. at (μM) av measured for `O=C(NCCCN1CCOCC1)c1cccc(Nc2cccc(C(=O)Nc3ccncn3)c2)c1` and print it.
75

Retrieve MDA tox: 50% tox. at (μM) av measured for `CCN(CC)CCCNC(=O)c1cccc(Nc2cccc(C(=O)Nc3ccncn3)c2)c1` and print it.
46

Retrieve MDA tox: 50% tox. at (μM) av measured for `O=C(NCCCN1CCOCC1)c1cccc(Nc2cccc(C(=O)Nc3ccncc3)c2)c1` and print it.
51

Retrieve MDA tox: 50% tox. at (μM) av measured for O=C(NCCCN1CCOCC1)c1cccc(Nc2cccc(/C=C/c3ccncc3)c2)c1 [Compound 583, reference compound] and print it.
21

====

- Test system: human PBMC
- assayName: Toxicity assay under normal cell culture conditions (MTS), PBMC
- Format: cell-based
- conditionInfo: human PBMC, RPMI+10% FBS+IL-2, 72 h incubation, MTS
- Description: Toxicity Assays (Under Normal Cell Culture Conditions): Compounds were prepared as for the invasion assay, and then added to either MDA-MB231-luc-D3H2LN cells (2000/well) under normal culture conditions (MEM+10% FBS), or human PBMC (75000/well, in RPMI+10% FBS+IL-2) in standard 96-well tissue culture plates. After 72 h incubation, a standard MTS assay was performed according to the manufacturer's instructions (Promega Ref. G3581). […]
Flag rule - PBMC tox.: 50% tox. at (μM) av less than 40 µM flags satisfied; the remaining entries get not satisfied.

Item `CN1CCN(CCCNC(=O)c2ccnc(Nc3cccc(C(=O)Nc4ccncc4)c3)c2)CC1` : PBMC tox.: 50% tox. at (μM) av beneath 40 µM, strictly?
not satisfied

Item `CCN(CC)CCCNC(=O)c1ccnc(Nc2cccc(C(=O)Nc3ccncc3)c2)c1` : PBMC tox.: 50% tox. at (μM) av beneath 40 µM, strictly?
not satisfied

Item `CCN(CC)CCCNS(=O)(=O)c1cccc(Nc2cccc(C(=O)N(C)c3ccncc3)c2)c1` : PBMC tox.: 50% tox. at (μM) av beneath 40 µM, strictly?
not satisfied

Item `CCN(CC)CCCNC(=O)c1cccc(Nc2cccc(C(=O)Nc3ccncc3)c2)c1` : PBMC tox.: 50% tox. at (μM) av beneath 40 µM, strictly?
not satisfied

Item `O=C(NCCCN1CCOCC1)c1cccc(Nc2cccc(C(=O)Nc3ccncn3)c2)c1` : PBMC tox.: 50% tox. at (μM) av beneath 40 µM, strictly?
not satisfied

Item `CN(C(=O)c1cccc(Nc2cccc(C(=O)NCCCN3CCCCC3)c2)c1)c1ccncc1` : PBMC tox.: 50% tox. at (μM) av beneath 40 µM, strictly?
not satisfied

Item `CN(C(=O)c1cccc(Nc2cccc(C(=O)NCCCN3CCCC3)c2)c1)c1ccncc1` : PBMC tox.: 50% tox. at (μM) av beneath 40 µM, strictly?
not satisfied

Item `CCN(CC)CCCNC(=O)c1cccc(Nc2cccc(C(=O)N(C)c3ccncc3)c2)c1` : PBMC tox.: 50% tox. at (μM) av beneath 40 µM, strictly?
not satisfied

Item `O=C(Nc1ccncc1)c1ccc(Nc2cccc(S(=O)(=O)NCCCN3CCOCC3)c2)cc1` : PBMC tox.: 50% tox. at (μM) av beneath 40 µM, strictly?
satisfied

Item `O=C(NCCCN1CCOCC1)c1cccc(Nc2ccc(C(=O)Nc3ccncc3)cc2)c1` : PBMC tox.: 50% tox. at (μM) av beneath 40 µM, strictly?
satisfied

Item `CCN(CC)CCCNC(=O)c1ccc(Nc2cccc(C(=O)Nc3ccncc3)c2)cc1` : PBMC tox.: 50% tox. at (μM) av beneath 40 µM, strictly?
not satisfied

Item `O=C(Nc1ccncc1)c1cccc(Nc2cccc(S(=O)(=O)NCCCN3CCOCC3)c2)c1` : PBMC tox.: 50% tox. at (μM) av beneath 40 µM, strictly?
not satisfied

Item `CN(C(=O)c1cccc(Nc2cccc(C(=O)NCCCN3CCOCC3)c2)c1)c1ccncc1` : PBMC tox.: 50% tox. at (μM) av beneath 40 µM, strictly?
not satisfied

Item O=C(NCCCN1CCCC1)c1cccc(Nc2cccc(/C=C/c3ccncc3)c2)c1 [Compound 585, reference compound] : PBMC tox.: 50% tox. at (μM) av beneath 40 µM, strictly?
satisfied

Item `CN1CCN(CCCNC(=O)c2ccnc(Nc3cccc(C(=O)N(C)c4ccncc4)c3)c2)CC1` : PBMC tox.: 50% tox. at (μM) av beneath 40 µM, strictly?
not satisfied

Item `CCN(CC)CCCNC(=O)c1cccc(Nc2cc(C(=O)Nc3ccncc3)ccn2)c1` : PBMC tox.: 50% tox. at (μM) av beneath 40 µM, strictly?
not satisfied

Item `CN1CCN(CCCNC(=O)c2cccc(Nc3cccc(C(=O)Nc4ccncn4)c3)c2)CC1` : PBMC tox.: 50% tox. at (μM) av beneath 40 µM, strictly?
not satisfied

Item `O=C(Nc1ccncn1)c1cccc(Nc2cccc(S(=O)(=O)NCCCN3CCCCC3)c2)c1` : PBMC tox.: 50% tox. at (μM) av beneath 40 µM, strictly?
not satisfied

Item `CCN(CC)CCCNC(=O)c1cccc(Nc2cccc(C(=O)Nc3ccncn3)c2)n1` : PBMC tox.: 50% tox. at (μM) av beneath 40 µM, strictly?
not satisfied

Item `CN1CCN(CCCNC(=O)c2ccnc(Nc3cc(C(=O)Nc4ccncc4)ccn3)c2)CC1` : PBMC tox.: 50% tox. at (μM) av beneath 40 µM, strictly?
not satisfied

Item `O=C(NCCCN1CCCC1)c1cccc(Nc2cccc(C(=O)Nc3ccncc3)c2)c1` : PBMC tox.: 50% tox. at (μM) av beneath 40 µM, strictly?
not satisfied

Item `CCN(CC)CCCNC(=O)c1cccc(Nc2cccc(C(=O)Nc3ccncn3)c2)c1` : PBMC tox.: 50% tox. at (μM) av beneath 40 µM, strictly?
not satisfied

Item `O=C(Nc1ccncc1)c1cccc(Nc2cccc(S(=O)(=O)NCCN3CCCCC3)c2)c1` : PBMC tox.: 50% tox. at (μM) av beneath 40 µM, strictly?
satisfied

Item `CCN(CC)CCCNC(=O)c1ccnc(Nc2cccc(C(=O)Nc3ccncn3)c2)c1` : PBMC tox.: 50% tox. at (μM) av beneath 40 µM, strictly?
not satisfied

Item `CN1CCN(CCCNC(=O)c2cccc(Nc3cc(C(=O)Nc4ccncc4)ccn3)c2)CC1` : PBMC tox.: 50% tox. at (μM) av beneath 40 µM, strictly?
not satisfied

Item O=C(NCCCN1CCOCC1)c1cccc(Nc2cccc(/C=C/c3ccncc3)c2)c1 [Compound 583, reference compound] : PBMC tox.: 50% tox. at (μM) av beneath 40 µM, strictly?
satisfied

Item `O=C(NCCCN1CCCCC1)c1cccc(Nc2cccc(C(=O)Nc3ccncc3)c2)c1` : PBMC tox.: 50% tox. at (μM) av beneath 40 µM, strictly?
satisfied

Item `O=C(NCCCN1CCCCC1)c1cccc(Nc2cccc(C(=O)Nc3ccncn3)c2)c1` : PBMC tox.: 50% tox. at (μM) av beneath 40 µM, strictly?
not satisfied

Item `CN1CCN(CCCNC(=O)c2ccnc(Nc3cccc(C(=O)Nc4ccncn4)c3)c2)CC1` : PBMC tox.: 50% tox. at (μM) av beneath 40 µM, strictly?
not satisfied

Item `CCN(CC)CCCNC(=O)c1cccc(Nc2ccc(C(=O)Nc3ccncc3)cc2)c1` : PBMC tox.: 50% tox. at (μM) av beneath 40 µM, strictly?
satisfied

Item `O=C(Nc1ccncc1)c1cccc(Nc2cccc(S(=O)(=O)NCCCN3CCCCC3)c2)c1` : PBMC tox.: 50% tox. at (μM) av beneath 40 µM, strictly?
satisfied

Item `CCN(CC)CCCNS(=O)(=O)c1cccc(Nc2cc(C(=O)Nc3ccncc3)ccn2)c1` : PBMC tox.: 50% tox. at (μM) av beneath 40 µM, strictly?
not satisfied

Item `CCN(CC)CCCNS(=O)(=O)c1cccc(Nc2cccc(C(=O)Nc3ccncc3)c2)c1` : PBMC tox.: 50% tox. at (μM) av beneath 40 µM, strictly?
not satisfied
